Tested on: Pseudomonas aeruginosa
procedure-summary: Antibacterial activity against Pseudomonas aeruginosa 864 assessed as growth inhibition
Format: functional
measured-property: MIC

# lookup: Cn1nnnc1SCC1=C(C(=O)[O-])N2C(=O)[C@@H](NC(=O)C(NC(=O)C3CO3)c3ccccc3)[C@H]2SC1.[Na+] (mixture of isomers) on Pseudomonas aeruginosa, MIC = > 500 µg/mL

GET /values?item= Cn1nnnc1SCC1=C(C(=O)[O-])N2C(=O)[C@@H](NC(=O)C(NC(=O)COCC(=O)[O-])c3ccccc3)[C@H]2SC1.[Na+].[Na+] (stereo partly drawn) &system= Pseudomonas aeruginosa returns MIC: 500 µg/mL

Tested on Pseudomonas aeruginosa: Cn1nnnc1SCC1=C(C(=O)[O-])N2C(=O)[C@@H](NC(=O)C(NC(=O)CCCC(=O)[O-])c3ccccc3)[C@H]2SC1.[Na+].[Na+] (stereo partly drawn) . Observed MIC: > 500 µg/mL

###

Test system: Salmonella paratyphi
procedure-summary: Antibacterial activity against Salmonella paratyphi ATCC 12176 assessed as growth inhibition by two-fold agar dilution method
Assay type: functional, Salmonella enterica subsp. enterica serovar Paratyphi A
protocol-conditions: Salmonella enterica
Below: a set of entries, each annotated with reported MIC.
Express the result in µg/mL but write the number alone.

[[record]]
molecule = "CC(=O)OCC1=C(C(=O)[O-])N2C(=O)[C@@H](NC(=O)C(NC(=O)C3CCC(C(=O)[O-])O3)c3ccccc3)[C@H]2SC1.[Na+].[Na+] (stereo partly specified)"
units_text = "µg/mL"
assay_result = 12.5

[[record]]
molecule = "CC(=O)OCC1=C(C(=O)O)N2C(=O)[C@@H](NC(=O)[C@H](N)c3ccccc3)[C@H]2SC1"
units_text = "µg/mL"
assay_result = 3.1

[[record]]
molecule = "Cn1nnnc1SCC1=C(C(=O)O)N2C(=O)[C@@H](NC(=O)C(N)c3ccccc3)[C@H]2SC1 (stereo partly specified)"
units_text = "µg/mL"
assay_result = 1.6

[[record]]
molecule = "Cn1nnnc1SCC1=C(C(=O)[O-])N2C(=O)[C@@H](NC(=O)[C@H](NC(=O)[C@H]3O[C@@H]3C(=O)[O-])c3ccccc3)[C@H]2SC1.[Na+].[Na+] (mixture of isomers)"
units_text = "µg/mL"
assay_result = 12.5

[[record]]
molecule = "Cn1nnnc1SCC1=C(C(=O)[O-])N2C(=O)[C@@H](NC(=O)C(NC(=O)CCCC(=O)[O-])c3ccccc3)[C@H]2SC1.[Na+].[Na+] (stereo partly specified)"
units_text = "µg/mL"
assay_result = 6.3


The molecule Cn1nnnc1SCC1=C(C(=O)[O-])N2C(=O)[C@@H](NC(=O)C(NC(=O)C3CCC(C(=O)[O-])O3)c3ccccc3)[C@H]2SC1.[Na+].[Na+] (mixture of isomers) on Salmonella paratyphi: MIC was 3.1

Entry CC(=O)OCC1=C(C(=O)[O-])N2C(=O)[C@@H](NC(=O)C(NC(=O)[C@@H]3O[C@@H]3C(=O)[O-])c3ccccc3)[C@H]2SC1.[Na+].[Na+] (single isomer, unassigned; diastereomer 2) , tested on Salmonella paratyphi, has a reported MIC of 6.3

Record CC1(C)S[C@@H]2[C@H](NC(=O)C(C(=O)O)c3ccccc3)C(=O)N2[C@H]1C(=O)O (stereo partly specified) ; system Salmonella paratyphi; MIC = 6.3

Form: item Cn1nnnc1SCC1=C(C(=O)[O-])N2C(=O)[C@@H](NC(=O)C(NC(=O)C3OC3C(=O)[O-])c3ccccc3)[C@H]2SC1.[Na+].[Na+] (mixture of isomers) ; test system Salmonella paratyphi; MIC: 1.6

# value of MIC, Salmonella paratyphi, item CC(=O)OCC1=C(C(=O)[O-])N2C(=O)[C@@H](NC(=O)C(NC(=O)COCC(=O)[O-])c3ccccc3)[C@H]2SC1.[Na+].[Na+] (stereo partly specified) = 12.5

Recorded MIC for CC(=O)OCC1=C(C(=O)[O-])N2C(=O)[C@@H](NC(=O)C(NC(=O)C3OC3C(=O)[O-])c3ccccc3)[C@H]2SC1.[Na+].[Na+] (single isomer, unassigned; diastereomer 1) on Salmonella paratyphi was 1.6

The recorded MIC with Salmonella paratyphi for CC(=O)OCC1=C(C(=O)[O-])N2C(=O)[C@@H](NC(=O)C(NC(=O)CCCC(=O)[O-])c3ccccc3)[C@H]2SC1.[Na+].[Na+] (stereo partly specified) was 25
